Sourced from the OligoGym collection

# Tested System: MALAT1
# Settings: ASO, A431, 0.005 µM
After the bases stand the sugars from the 5' end (letter, count) and the backbone: PS all phosphorothioate, else s phosphorothioate and o phosphodiester by linkage. Methylation of C is not given here. k = constrained ethyl (cEt); d = 2'-deoxy (DNA)
Reported target mRNA inhibition values for a set of sequences
Entry rule: numbers only, all in %.

| Residue String | Endpoint Value |
| --- | --- |
| TGCTTATTCCCCAATG (sugars k3 d10 k3, PS) | 52 |
| CAGCGGTACACTCCTT (sugars k3 d10 k3, PS) | 36 |
| TTAAAAGATCGCCTTC (sugars k3 d10 k3, PS) | 43 |
| AGCACGGGCTGTCTGC (sugars k3 d10 k3, PS) | 7 |
| GACCAAACTGCAGAGT (sugars k3 d10 k3, PS) | 3 |
| CGTCCTGGAAACCAGG (sugars k3 d10 k3, PS) | 21 |
| CTAAGAGACATTCAAG (sugars k3 d10 k3, PS) | 27 |
| CTATTCTTTTCTTCGC (sugars k3 d10 k3, PS) | 37 |
| CCACTCTTGGAAAACG (sugars k3 d10 k3, PS) | 23 |
| TCTGAGTGAAGTGTAC (sugars k3 d10 k3, PS) | 34 |

Ask | Suppose we examine the sequence ATGGAAAGCGAGTTCA (sugars k3 d10 k3, PS) ; what target mRNA inhibition value has been reported?
Reply | 14

Ask | Suppose we examine the sequence CATTGCCTCTTCATTG (sugars k3 d10 k3, PS) ; what target mRNA inhibition value has been reported?
Reply | 36

Ask | Suppose we examine the sequence TGGAATCCTGTCTGCT (sugars k3 d10 k3, PS) ; what target mRNA inhibition value has been reported?
Reply | 17

Ask | Suppose we examine the sequence GTTACTCCAGCATAAA (sugars k3 d10 k3, PS) ; what target mRNA inhibition value has been reported?
Reply | 0

Ask | Suppose we examine the sequence AGCTACCATCAGAAGA (sugars k3 d10 k3, PS) ; what target mRNA inhibition value has been reported?
Reply | 34

Ask | Suppose we examine the sequence AGCACCTGGGTCAGCT (sugars k3 d10 k3, PS) ; what target mRNA inhibition value has been reported?
Reply | -5

Ask | Suppose we examine the sequence GCAGTAGGGCTTCTCA (sugars k3 d10 k3, PS) ; what target mRNA inhibition value has been reported?
Reply | -8

Ask | Suppose we examine the sequence CCCTAACATGCAATAC (sugars k3 d10 k3, PS) ; what target mRNA inhibition value has been reported?
Reply | 14

Ask | Suppose we examine the sequence CGTCCCCATATAAATC (sugars k3 d10 k3, PS) ; what target mRNA inhibition value has been reported?
Reply | 1
